I'd be grateful if you could share measured GI50 for these entries.
Test system: K562
Assay: Cytotoxicity against human K562 cells after 48 hrs by SRB assay
Type: functional
Settings: K562, 48 h
One number for each entry, in µM.

C/C=C1\NC(=O)[C@H](Cc2ccccc2)NC(=O)[C@@H](C(C)C)NC(=O)[C@@H]([C@H](C)CC)NC(=O)[C@H](NC(=O)[C@H](NC(=O)[C@H](CCCN)NC(=O)[C@H]2CCCN2C(=O)[C@H](NC(=O)CCCCCCCCCCCCC)C(C)C)[C@H](C)CC)[C@H](C)OC(=O)[C@H](C(C)C)NC1=O    3
C/C=C1\NC(=O)[C@H](Cc2ccccc2)NC(=O)[C@@H](C(C)C)NC(=O)[C@@H]([C@H](C)CC)NC(=O)[C@H](NC(=O)[C@H](NC(=O)[C@H](CCCN)NC(=O)[C@H]2CCCN2C(=O)[C@H](NC(=O)[C@@H](NC(=O)[C@@H](NC(=O)[C@H](NC(=O)Cc2ccc(C(F)(F)F)cc2)C(C)C)[C@@H](C)O)C(C)C)C(C)C)[C@H](C)CC)[C@H](C)OC(=O)[C@H](C(C)C)NC1=O    2.23
C/C=C1\NC(=O)[C@H](Cc2ccccc2)NC(=O)[C@@H](C(C)C)NC(=O)[C@@H]([C@H](C)CC)NC(=O)[C@H](NC(=O)[C@H](NC(=O)[C@H](CCCN)NC(=O)[C@H]2CCCN2C(=O)[C@H](NC(=O)[C@@H](NC(=O)[C@H](C)NC(=O)[C@H](NC(=O)CCCC(C)C)C(C)C)C(C)C)C(C)C)[C@H](C)CC)[C@H](C)OC(=O)[C@H](C(C)C)NC1=O    0.822
C/C=C1\NC(=O)[C@H](Cc2ccccc2)NC(=O)[C@@H](C(C)C)NC(=O)[C@@H]([C@H](C)CC)NC(=O)[C@H](NC(=O)[C@H](NC(=O)[C@H](CCCN)NC(=O)[C@H]2CCCN2C(=O)[C@H](NC(=O)[C@H](CC(C)C)NC(=O)[C@@H](NC(=O)[C@H](NC(=O)CCCC(C)C)C(C)C)[C@@H](C)O)C(C)C)[C@H](C)CC)[C@H](C)OC(=O)[C@H](C(C)C)NC1=O    2.1

Okay, now this molecule:
Report GI50 for "C/C=C1\NC(=O)[C@H](Cc2ccccc2)NC(=O)[C@@H](C(C)C)NC(=O)[C@@H]([C@H](C)CC)NC(=O)[C@H](NC(=O)[C@H](NC(=O)[C@H](CCCN)NC(=O)[C@H]2CCCN2C(=O)[C@H](NC(=O)[C@@H](NC(=O)[C@@H](NC(=O)[C@H](NC(=O)CC[C@@H](C)[C@H]2CC[C@H]3[C@@H]4CC[C@@H]5C[C@H](OC(=O)C(F)(F)F)CC[C@]5(C)[C@H]4CC[C@]23C)C(C)C)[C@@H](C)O)C(C)C)C(C)C)[C@H](C)CC)[C@H](C)OC(=O)[C@H](C(C)C)NC1=O" tested on K562.
0.967

Data provenance is ChEMBL document CHEMBL1156597.
